target: human GPR17 (Homo sapiens); construct: HA; test: [35S]GTPγS binding assay; details: membranes of 1321N1 cells transfected with human GPR17; mean ± SEM of 3 experiments
Sequence (Q13304 29-367): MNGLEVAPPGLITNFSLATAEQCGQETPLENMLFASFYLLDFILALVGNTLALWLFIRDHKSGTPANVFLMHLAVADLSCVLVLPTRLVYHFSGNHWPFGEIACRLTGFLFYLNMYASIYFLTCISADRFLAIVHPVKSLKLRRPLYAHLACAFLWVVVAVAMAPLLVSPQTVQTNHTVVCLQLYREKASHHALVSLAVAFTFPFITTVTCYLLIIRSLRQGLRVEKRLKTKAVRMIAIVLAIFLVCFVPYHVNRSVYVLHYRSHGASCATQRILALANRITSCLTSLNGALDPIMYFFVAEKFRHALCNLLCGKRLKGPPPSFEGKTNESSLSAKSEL
MEASURED ATTRIBUTE: pEC50
Note: pEC50 values are expressed as the negative base-10 logarithm of concentration in M.

Record excerpt, results attached:
- INPUT SMILES: "CCc1ccccc1-n1c(SCC(=O)Nc2ccccc2Cl)nnc1-c1ccccc1O"
  MEASURED ATTRIBUTE: "pEC50"
  ENDPOINT VALUE: 9.28
- INPUT SMILES: "Cc1cccc(-c2n[nH]c(SCC(=O)Nc3cccc4ccccc34)n2)c1"
  MEASURED ATTRIBUTE: "pEC50"
  ENDPOINT VALUE: 9.32
- INPUT SMILES: "CCOc1ccc(-n2c(SCC(=O)Nc3ccc(Cl)c(C(F)(F)F)c3)nnc2-c2cccc(C)c2)cc1"
  MEASURED ATTRIBUTE: "pEC50"
  ENDPOINT VALUE: 8.15
- INPUT SMILES: "Cc1ccc(-c2nnc(SCC(=O)Nc3nccs3)[nH]2)cc1"
  MEASURED ATTRIBUTE: "pEC50"
  ENDPOINT VALUE: 9.19
- INPUT SMILES: "Cn1c(SCC(=O)Nc2ccc(Cl)cc2)nnc1-c1ccc(NC(=O)c2ccccc2)cc1"
  MEASURED ATTRIBUTE: "pEC50"
  ENDPOINT VALUE: 9.37

Record request: pEC50 value, item `Cc1cccc(NC(=O)CN2C(=O)CC(c3ccccc3)=Nc3ccccc32)c1C`
8.77

Consider the compound shown here: `Cc1cccc(-c2n[nH]c(SCC(=O)Nc3ccccc3)n2)c1` What is its recorded pEC50?
9.62
